Taken from patent US8987249B2.

experimental_system: recombinant human DPPI (Cathepsin C) (Homo sapiens (Human), UniProt P53634)
Sequence (P53634 231-394): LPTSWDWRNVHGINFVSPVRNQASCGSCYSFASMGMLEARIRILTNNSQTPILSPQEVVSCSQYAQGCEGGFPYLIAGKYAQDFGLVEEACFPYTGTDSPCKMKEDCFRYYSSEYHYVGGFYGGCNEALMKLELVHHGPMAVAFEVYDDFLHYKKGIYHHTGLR
Sequence (P53634 395-463): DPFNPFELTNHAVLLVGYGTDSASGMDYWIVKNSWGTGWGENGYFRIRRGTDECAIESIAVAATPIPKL
Sequence (P53634 25-134): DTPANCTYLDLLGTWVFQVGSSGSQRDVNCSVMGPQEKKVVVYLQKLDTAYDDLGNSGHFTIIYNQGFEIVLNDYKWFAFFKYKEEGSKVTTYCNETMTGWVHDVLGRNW
run_description: Inhibition of human DPPI (Cathepsin C)
setup_conditions: substrate Gly-Arg-AMC
property_name: pIC50
Numbers only, as −log10 of the molar value.

Would you be so kind as to report pIC50 for each listed record?
1. CS(=O)(=O)c1ccc(-c2ccc(C[C@@H](C#N)NC(=O)[C@H]3N[C@@H]4CC[C@H]3C4)c(F)c2)cc1OCC(F)F [Example 252]
2. CN1CCN(S(=O)(=O)c2cc(-c3ccc(C[C@@H](C#N)NC(=O)[C@H]4N[C@@H]5CC[C@H]4C5)c(F)c3)ccc2F)CC1 [Example 339]
3. N#C[C@H](Cc1ccc(-c2ccc3c(c2)CC(=O)N3)cc1F)NC(=O)[C@H]1N[C@H]2C[C@@H]1[C@@H]1C[C@@H]12 [Example 134]

8.42
8.89
7.75

Would you be so kind as to report pIC50 for each listed record?
1. N#CC(Cc1ccc2c(c1)c(=O)[nH]c1c(F)cccc12)NC(=O)[C@H]1N[C@@H]2CC[C@H]1C2 (stereo partly drawn) [Example 308]
2. N#C[C@H](Cc1ccc(-c2csc(C(=O)N3CCN(C4CC4)CC3)c2)cc1F)NC(=O)[C@H]1N[C@@H]2CC[C@H]1C2 [Example 229]
3. COCc1cn(-c2ccc(C[C@@H](C#N)NC(=O)[C@H]3N[C@@H]4CC[C@H]3C4)c(F)c2)nn1 [Example 111]

1. 8.08
2. 8.77
3. 7.50
